- target.entity: Sphingosine 1-phosphate receptor 1 (Homo sapiens)
- experiment: S1P1 agonism potentiation – cell-based, potentiator mode, 60K MLSMR set, dose response (AID 466)
- protocol.conditions: S1P1 cell assay, potentiation of agonist response
Calls of active or inactive are those of the source. The rule behind the calls is not given here.
Outcome codes: active, inactive

1) Cc1nn(Cc2ccc(Cl)c(Cl)c2)c(C)c1NC(=O)c1cc(C2CC2)on1    inactive
2) CC1=C(C(=O)OCc2ccc3c(c2)OCO3)C(c2ccccc2)NC(=O)N1 (configuration not stated)    active
3) CCOc1ccc(C(C)=O)cc1N1C(=O)C2C3C=CC(O3)C2C1=O (configuration not stated)    inactive
4) CC(C)c1ccc2oc(-c3cc(N)ccc3O)nc2c1    active
5) COc1ccc(N2C(=O)CC(Sc3ncn[nH]3)C2=O)c(OC)c1 (configuration not stated)    inactive
6) CC(=O)Oc1ccc(N2C(=O)C3C(C2=O)C2(C)C=CC3(C)O2)cc1 (configuration not stated)    inactive
7) CNc1oc(-c2ccc(OCc3ccccc3)cc2)nc1C#N    active

====

- target.entity: Sphingosine 1-phosphate receptor 1 (Homo sapiens) (UniProt P21453)
- Sequence (P21453 whole entry, looked up): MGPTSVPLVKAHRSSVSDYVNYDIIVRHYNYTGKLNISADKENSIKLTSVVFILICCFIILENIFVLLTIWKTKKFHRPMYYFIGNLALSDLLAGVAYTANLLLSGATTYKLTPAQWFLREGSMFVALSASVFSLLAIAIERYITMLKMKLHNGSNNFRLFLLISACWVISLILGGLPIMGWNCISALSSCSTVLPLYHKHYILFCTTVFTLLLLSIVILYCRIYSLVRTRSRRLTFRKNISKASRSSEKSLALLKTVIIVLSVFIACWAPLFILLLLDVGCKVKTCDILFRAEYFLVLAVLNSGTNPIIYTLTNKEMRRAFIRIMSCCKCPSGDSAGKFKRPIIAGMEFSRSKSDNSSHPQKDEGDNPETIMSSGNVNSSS
- experiment: S1P1 agonism potentiation – cell-based, potentiator mode, 60K MLSMR set, dose response (AID 466)
- protocol.conditions: S1P1 cell assay, potentiation of agonist response
The source made the active and inactive calls. How the calls were made is not given here.
Outcome codes: active, inactive

1. NC(=O)c1ccc(OCC(F)(F)C(F)(F)C(F)(F)C(F)(F)C(F)(F)C(F)F)cc1    active
2. COC(=O)CC1SC(=O)NC1=Nc1ccccc1 (stereo not drawn)    inactive
3. O=C(C1CCN(S(=O)(=O)c2cccc3cccnc23)CC1)N1CCN(c2ccc(Cl)cc2)CC1    inactive
4. COc1ccc(/C=N/O)cc1COc1ccc(NC(C)=O)cc1    inactive
5. C/C(N)=C(/C#N)C(=O)CSc1nc2cc(Cl)ccc2s1    inactive
6. CCCCc1ccc(C2C(C#N)=C(N)SC(N)=C2C#N)s1    inactive
7. Cc1[nH]nc2c1C1(C(=O)N(Cc3ccc(Cl)cc3)c3ccccc31)C(C#N)=C(N)O2 (stereo not drawn)    inactive
8. CCOC(=O)c1cccc2c1-c1ccccc1/C2=N/O    inactive
9. COc1ccc(N=c2scc(-c3ccc(S(=O)(=O)N4CCOCC4)cc3)n2CCCO)cc1    inactive
10. CC(C)c1ccc(OCc2nc(-c3ccccn3)no2)c(Br)c1    active
11. C/C(N)=C(/C#N)C(=O)CSc1nnc(SCc2ccc(Cl)cc2)s1    active
12. Cc1nn(Cc2ccc(Cl)c(Cl)c2)c(C)c1NC(=O)c1cc(-c2ccco2)on1    active
13. CC1=C(C(=O)OCc2ccc3c(c2)OCO3)C(c2ccc(F)cc2)NC(=O)N1 (stereo not drawn)    active
14. CC1(C)CC(=O)C(C=Nc2ccc3[nH]ncc3c2)=C(O)C1    active
15. c1ccc2c(c1)CCN(c1ncnc3c1[nH]c1ccccc13)C2    active
16. Cc1ccc(NC(=O)c2cc(-c3ccco3)on2)cc1C    active
17. Cc1cc(N2CCOCC2)nc(NCc2ccccc2)n1    inactive
18. O=C1C2C3C=CC(CO)(O3)C2C(=O)N1c1ccccc1-c1ccccc1 (stereo not drawn)    active
19. Cc1ccc2[nH]c3c(N4CCCCCC4)ncnc3c2c1    active
20. CCOC(=O)C1CCN(c2ncnc3c2oc2ccccc23)CC1    inactive
21. COc1ccc(/C(O)=C2/C(=O)C(=O)N(CC3CCCO3)C2c2cccc(OC)c2)cc1 (stereo not drawn)    inactive
22. Cn1nc(CC(=O)Nc2ccc3c(c2)OCCO3)c2ccccc2c1=O    active
23. CC(=O)c1ccc(NC(=O)N2CCN(c3cccc(Cl)c3)CC2)cc1    active
